B1: library; numbered along this chain (parent)
chain: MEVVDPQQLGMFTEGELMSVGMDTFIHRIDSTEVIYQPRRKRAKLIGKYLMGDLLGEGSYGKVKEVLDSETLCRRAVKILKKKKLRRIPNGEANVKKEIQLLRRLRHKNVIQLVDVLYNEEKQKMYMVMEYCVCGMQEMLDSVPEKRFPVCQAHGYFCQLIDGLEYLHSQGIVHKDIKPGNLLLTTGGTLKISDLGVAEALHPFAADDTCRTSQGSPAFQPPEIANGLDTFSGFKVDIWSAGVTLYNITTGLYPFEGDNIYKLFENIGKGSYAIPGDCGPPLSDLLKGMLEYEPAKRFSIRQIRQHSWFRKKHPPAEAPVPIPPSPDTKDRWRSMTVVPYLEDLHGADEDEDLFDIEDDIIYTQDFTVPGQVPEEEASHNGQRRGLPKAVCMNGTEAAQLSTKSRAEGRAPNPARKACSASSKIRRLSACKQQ

# Variants of: B1
# PROTOCOL_SUMMARY: STK11 functional score (HeLa growth suppression), rescaled enrichment; synonymous median = 1, nonsense median = 0 (normalised score)
# TEST_PARAMETERS: with HeLa; variant type: missense
Friendly reminder: STK11 functional score below 1 is met, at or above is not met.

change=P319M label_class="not met"
change=G58C label_class=met
change=Q159C label_class=met
change=R28G label_class=met
change=A273L label_class=met
change=F309L label_class=met
change=G346F label_class="not met"
change=C134S label_class="not met"
change=C132S label_class=met
change=S232Y label_class=met
change=L72N label_class=met
change=T395K label_class=met
change=N259E label_class="not met"
change=D365P label_class="not met"
change=Q112A label_class="not met"
change=P275L label_class=met
change=R74L label_class="not met"
change=Y272H label_class="not met"
change=P275A label_class=met
change=L290A label_class=met
change=M125H label_class=met
